Tested on: MCF7
Test: Cytotoxicity against human MCF7 cells after 45 hrs by resazurin microplate assay
Type: functional, cell-based
Conditions: MCF7, 45 h
VALUE_TYPE: IC50

COMPOUND: C=C1C(=O)O[C@@H]2C[C@]3(O)[C@H](O)CC[C@H](C)[C@@]3(C)C[C@]12O
VALUE_TYPE: IC50
RESULT: 15 µM
//
COMPOUND: CC1=C2C[C@]3(C)[C@@H](C)CC[C@@H](O)[C@@]3(O)C[C@H]2OC1=O [MAIRETOLIDE F]
VALUE_TYPE: IC50
RESULT: > 188 µM
//
COMPOUND: C=C1C(=O)O[C@@H]2C[C@]3(O)[C@H](OC)CC[C@H](C)[C@@]3(C)C[C@]12O
VALUE_TYPE: IC50
RESULT: 15 µM
//
COMPOUND: C[C@H]1CC[C@@H]2O[C@@]23C[C@H]2OC(=O)C(CO)=C2C[C@]13C
VALUE_TYPE: IC50
RESULT: > 189 µM

Here is another compound to look at.
*Q* Entry under review: C=C1C(=O)O[C@@H]2C[C@]34O[C@H]3CC[C@H](C)[C@@]4(C)C[C@]12O . Reported IC50?
*A* 10 µM

* * *

System: Vero
Experiment: Cytotoxicity against african green monkey Vero cells by green fluorescent protein microplate assay
Format: cell-based
Settings: Chlorocebus sabaeus
VALUE_TYPE: pIC50
Answers are plain numbers, as −log10 of the molar value.

Please review the following examples before continuing.
CHEM_SMILES: C=C1C(=O)O[C@@H]2C[C@]3(O)[C@H](OC)CC[C@H](C)[C@@]3(C)C[C@]12O
TARGET_OR_SYSTEM: Vero
pIC50: 5.41

CHEM_SMILES: C=C1C(=O)O[C@@H]2C[C@]34O[C@H]3CC[C@H](C)[C@@]4(C)C[C@]12O
TARGET_OR_SYSTEM: Vero
pIC50: 5.03

*Q* Entry under review: C=C1C(=O)O[C@@H]2C[C@]3(O)[C@H](O)CC[C@H](C)[C@@]3(C)C[C@]12O . Reported pIC50?
*A* 5.07

* * *

Test system: Plasmodium falciparum
Assay: Antimalarial activity against Plasmodium falciparum K1 after 18 hrs by [G-3H]hypoxanthine uptake assay
Assay type: functional, organism-based
Details: K1, 18 h
Consider the following molecules; for each one, report its pIC50.
One number for each entry, as −log10 of the molar value.

CHEM_SMILES: C=C1C(=O)O[C@@H]2C[C@]3(O)[C@H](OC)CC[C@H](C)[C@@]3(C)C[C@]12O
VALUE_TYPE: pIC50
NUMBER: 5.09

Here is another molecule to look at.
*Q* Entry under review: C=C1C(=O)O[C@@H]2C[C@]34O[C@H]3CC[C@H](C)[C@@]4(C)C[C@]12O . Reported pIC50?
*A* 4.89

* * *

Consider the following molecules; for each one, report its IC50.
Test system: Candida albicans
Assay: Antifungal activity against Candida albicans after 45 hrs by resazurin microplate assay
Type: functional, organism-based

Please review the following examples before continuing.
MOLECULE: C=C1C(=O)O[C@@H]2C[C@]3(O)[C@H](OC)CC[C@H](C)[C@@]3(C)C[C@]12O
RESULT: > 169 µM

MOLECULE: C[C@H]1CC[C@@H]2O[C@@]23C[C@H]2OC(=O)C(CO)=C2C[C@]13C
RESULT: > 189 µM

MOLECULE: CC1=C2C[C@]3(C)[C@@H](C)CC[C@@H](O)[C@@]3(O)C[C@H]2OC1=O [MAIRETOLIDE F]
RESULT: > 188 µM

MOLECULE: C=C1C(=O)O[C@@H]2C[C@]3(O)[C@H](O)CC[C@H](C)[C@@]3(C)C[C@]12O
RESULT: > 177 µM

*Q* Entry under review: C=C1C(=O)O[C@@H]2C[C@]34O[C@H]3CC[C@H](C)[C@@]4(C)C[C@]12O . Reported IC50?
*A* 7.8 µM

* * *

Test system: Mycobacterium tuberculosis
Experiment: Antituberculosis activity against Mycobacterium tuberculosis H37Ra by green fluorescent protein microplate assay
Type: functional
Consider the following compounds; for each one, report its MIC.
Numbers only, in µM.

CHEM_SMILES: C=C1C(=O)O[C@@H]2C[C@]3(O)[C@H](OC)CC[C@H](C)[C@@]3(C)C[C@]12O
TARGET_OR_SYSTEM: Mycobacterium tuberculosis
MIC (µM): 42

Here is another compound to look at.
*Q* Entry under review: C=C1C(=O)O[C@@H]2C[C@]34O[C@H]3CC[C@H](C)[C@@]4(C)C[C@]12O . Reported MIC?
*A* 47

* * *

System: NCI-H187
Assay: Cytotoxicity against human NCI-H187 cells after 45 hrs by resazurin microplate assay
Format: functional, cell-based
Details: NCI-H187, 45 h
VALUE_TYPE: pIC50
Give bare numbers, as −log10 of the molar value.

CHEM_SMILES: C=C1C(=O)O[C@@H]2C[C@]3(O)[C@H](OC)CC[C@H](C)[C@@]3(C)C[C@]12O
TARGET_OR_SYSTEM: NCI-H187
VALUE_TYPE: pIC50
NUMBER: 5.42

CHEM_SMILES: C=C1C(=O)O[C@@H]2C[C@]3(O)[C@H](O)CC[C@H](C)[C@@]3(C)C[C@]12O
TARGET_OR_SYSTEM: NCI-H187
VALUE_TYPE: pIC50
NUMBER: 5.14

Here is another compound to look at.
*Q* Entry under review: C=C1C(=O)O[C@@H]2C[C@]34O[C@H]3CC[C@H](C)[C@@]4(C)C[C@]12O . Reported pIC50?
*A* 5.24

* * *

Consider the following compounds; for each one, report its IC50.
Tested on: Plasmodium falciparum
Test: Antimalarial activity against Plasmodium falciparum K1 after 18 hrs by [G-3H]hypoxanthine uptake assay
Format: functional, organism-based
Details: K1, 18 h

Please review the following examples before continuing.
COMPOUND: CC1=C2C[C@]3(C)[C@@H](C)CC[C@@H](O)[C@@]3(O)C[C@H]2OC1=O [MAIRETOLIDE F]
TARGET_OR_SYSTEM: Plasmodium falciparum
RESULT: > 38 µM
--
COMPOUND: C=C1C(=O)O[C@@H]2C[C@]3(O)[C@H](O)CC[C@H](C)[C@@]3(C)C[C@]12O
TARGET_OR_SYSTEM: Plasmodium falciparum
RESULT: > 35 µM

Here is another compound to look at.
*Q* Entry under review: C[C@H]1CC[C@@H]2O[C@@]23C[C@H]2OC(=O)C(CO)=C2C[C@]13C . Reported IC50?
*A* > 38 µM

* * *

Consider the following compounds; for each one, report its MIC.
System: Mycobacterium tuberculosis
Assay: Antituberculosis activity against Mycobacterium tuberculosis H37Ra by green fluorescent protein microplate assay
Assay type: functional

COMPOUND: C[C@H]1CC[C@@H]2O[C@@]23C[C@H]2OC(=O)C(CO)=C2C[C@]13C
VALUE_TYPE: MIC
RESULT: > 189 µM
//
COMPOUND: C=C1C(=O)O[C@@H]2C[C@]3(O)[C@H](O)CC[C@H](C)[C@@]3(C)C[C@]12O
VALUE_TYPE: MIC
RESULT: > 177 µM

Here is another compound to look at.
*Q* Entry under review: CC1=C2C[C@]3(C)[C@@H](C)CC[C@@H](O)[C@@]3(O)C[C@H]2OC1=O [MAIRETOLIDE F] . Reported MIC?
*A* > 188 µM
